biological target: Gal3S(b1-4)Glc6S; assay: glycan array binding signal (z-score within array); higher = stronger binding; settings: glycan notation: IUPAC condensed, linker removed
Shown is part of a subset that was picked to be rich in the strongest signals.
Assay Endpoint: glycan array binding signal (z-score)

[[record]]
binder = "Annexin-A1 (Mus musculus), P10107 (protein) MAMVSEFLKQARFLENQEQEYVQAVKSYKGGPGSAVSPYPSFNVSSDVAALHKAIMVKGVDEATIIDILTKRTNAQRQQIKAAYLQENGKPLDEVLRKALTGHLEEVVLAMLKTPAQFDADELRGAMKGLGTDEDTLIEILTTRSNEQIREINRVYREELKRDLAKDITSDTSGDFRKALLALAKGDRCQDLSVNQDLADTDARALYEAGERRKGTDVNVFTTILTSRSFPHLRRVFQNYGKYSQHDMNKALDLELKGDIEKCLTTIVKCATSTPAFFAEKLYEAMKGAGTRHKALIRIMVSRSEIDMNEIKVFYQKKYGISLCQAILDETKGDYEKILVALCGGN"
assay_endpoint = "glycan array binding signal (z-score)"
observed_value = 3.21

[[record]]
binder = "PILRa (Homo sapiens), Q9UKJ1 (protein) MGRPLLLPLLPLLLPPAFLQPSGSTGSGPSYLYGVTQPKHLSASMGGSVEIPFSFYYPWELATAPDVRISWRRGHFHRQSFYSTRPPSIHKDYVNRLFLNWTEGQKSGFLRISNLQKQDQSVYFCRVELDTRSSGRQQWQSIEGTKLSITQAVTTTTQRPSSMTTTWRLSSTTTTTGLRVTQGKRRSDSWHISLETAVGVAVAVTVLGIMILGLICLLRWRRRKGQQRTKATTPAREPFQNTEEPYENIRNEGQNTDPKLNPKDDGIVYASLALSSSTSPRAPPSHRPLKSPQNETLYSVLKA"
assay_endpoint = "glycan array binding signal (z-score)"
observed_value = 0.618

